System: human Melanoma LOX cells
measurement.description: In vivo susceptibility of encapsulated LOX melanoma cells in nude mice
assay.context: i.v. days 1, 5, 9
Protocol: In the experiments that follow, the drugs and other agents tested were administered to the host animal by injection at the various times called for in the protocol being tested. […] The washed microcapsules were aspirated into 1 ml serological pipettes, allowed to sediment, and the volume of packed microcapsules was determined. […] After mixing equal volumes of cell suspension and trypan blue, viable cell counts were determined using a hemocytometer. […]
recorded.endpoint: sensitivity of encapsulated LOX cells to the treatment (in words)

Sure, the documented sensitivity of encapsulated LOX cells to the treatment (in words) for O=P1(N(CCCl)CCCl)NCCCO1 (stereo not shown) [CY, cyclophosphamide] is most sensitive

Entry O=NN(CCCl)C(=O)NCCCl , sensitivity of encapsulated LOX cells to the treatment (in words) reported as most sensitive

Reported sensitivity of encapsulated LOX cells to the treatment (in words) for COc1cccc2c1C(=O)c1c(O)c3c(c(O)c1C2=O)C[C@@](O)(C(=O)CO)C[C@@H]3O[C@H]1C[C@H](N)[C@H](O)[C@H](C)O1 was most sensitive
